- TESTED_SYSTEM: Protein Tat (Human immunodeficiency virus type 1 group M subtype B (isolate HXB2)) (UniProt P04608)
- Sequence (P04608 whole entry, looked up): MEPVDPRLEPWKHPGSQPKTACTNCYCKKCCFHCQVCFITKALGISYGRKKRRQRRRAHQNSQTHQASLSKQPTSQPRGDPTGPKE
- PROTOCOL_NOTES: inhibitors of Tat binding to TAR RNA, dose response, counter-screen for Vif-APOBEC3G degradation inhibitor project, biochemical, fluorescence polarization, FAM-labeled TAR RNA (AID 1117361)
# pIC50 per entry
Reminder that pIC50 is minus the log10 of a molar concentration.

Reference set (3 entries):
COMPOUND	pIC50
O=C1/C(=C\c2ccco2)SC(=S)N1Cc1ccccc1	4.76
O=C(NC1CCCC1)c1ccc2nc(-c3ccco3)c(-c3ccco3)nc2c1	5.68
COc1ccccc1C1C=C(c2ccc(C)cc2)Nc2nnnn21 (configuration not stated)	4.07

Which measured pIC50 value corresponds to COc1cccc(NS(=O)(=O)c2ccc3c(c2)C2C=CCC2C(c2ccc(C(=O)O)cc2)N3)c1 (configuration not stated) ?
5.45

Which measured pIC50 value corresponds to CCOc1ccc(NCC2CCOC(C)(C)C2)cc1 (configuration not stated) ?
4.19

Which measured pIC50 value corresponds to O=C(O)CCc1ccc(S(=O)(=O)Nc2cc(C(F)(F)F)ccc2N2CCCC2)cc1 ?
4.17

Which measured pIC50 value corresponds to O=C1CC(=O)N(Cc2ccco2)C(=O)N1 ?
4.83

Which measured pIC50 value corresponds to CCOc1cccc(CNc2ccc(O)cc2)c1OCc1ccccc1Cl ?
4.20

Which measured pIC50 value corresponds to Cc1cc(C)cc(Nc2ccc(C(=O)O)cc2N)c1 ?
4.33

Which measured pIC50 value corresponds to O=C1C(=Cc2ccco2)CCCC1=Cc1ccco1 ?
4.19

Which measured pIC50 value corresponds to C=C(C)C(=O)Nc1cccc(C2=NOC3(C2)C[C@@H](C(N)=O)N(C(=O)c2cc([N+](=O)[O-])cc([N+](=O)[O-])c2)C3)c1 (some centres not stated) ?
4.28

Which measured pIC50 value corresponds to Oc1ccc2c(c1)C1CCCC1(N1CCOCC1)O2 (configuration not stated) ?
4.64
